Reference source: paper PMC5687316

Target chain: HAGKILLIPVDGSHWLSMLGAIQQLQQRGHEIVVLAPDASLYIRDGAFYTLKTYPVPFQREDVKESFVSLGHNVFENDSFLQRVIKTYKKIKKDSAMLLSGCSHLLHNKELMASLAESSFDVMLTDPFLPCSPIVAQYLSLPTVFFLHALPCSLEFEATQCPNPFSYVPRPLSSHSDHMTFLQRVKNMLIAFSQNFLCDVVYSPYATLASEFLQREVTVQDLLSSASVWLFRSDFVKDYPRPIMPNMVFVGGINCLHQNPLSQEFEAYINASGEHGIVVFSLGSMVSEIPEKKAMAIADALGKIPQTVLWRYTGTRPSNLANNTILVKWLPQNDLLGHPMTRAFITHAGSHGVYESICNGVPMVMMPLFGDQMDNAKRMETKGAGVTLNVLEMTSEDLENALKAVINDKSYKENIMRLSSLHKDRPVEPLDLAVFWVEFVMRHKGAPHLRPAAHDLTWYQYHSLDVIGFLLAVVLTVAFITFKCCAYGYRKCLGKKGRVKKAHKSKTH
ASSAY_METRIC: IC50 (µM)
Numeric only. Scale: µM

Q: I would be grateful if you could share the reported IC50 for "C#Cc1cccc(Nc2ncnc3cc4c(cc23)OCCOCCOCCO4)c1" .
Ans: 5.15
